test system: ragweed (common ragweed, Ambrosia elatior); experiment: Test A postemergence, visual injury rating 0-100; format: in vivo; settings: 500 g ai/ha, 0 to 100 scale
EXPERIMENTAL_ENDPOINT: Ragweed plant response rating

{"columns": ["MOLECULE", "EXPERIMENTAL_ENDPOINT", "TEST_RESULT"],
 "data": [
  ["CC1=[N+]([O-])C(C(=O)Nc2cccc(F)c2F)C(c2cccc(Br)c2)C1 (racemic) [Compound 19]", "Ragweed plant response rating", 20],
  ["CC1=[N+]([O-])C(C(=O)Nc2cccc(F)c2F)C(c2cccc(C)n2)C1 (racemic) [Compound 49]", "Ragweed plant response rating", 20],
  ["CC1=[N+]([O-])[C@@H](C(=O)Nc2ccccc2F)[C@H](c2ccc(C(F)(F)F)cc2)C1 (relative stereo) [Compound 26]", "Ragweed plant response rating", 60],
  ["CC1=[N+]([O-])C(C(=O)Nc2ccccc2[S+](C)[O-])C(c2ccc(C(F)(F)F)cc2)C1 (racemic) [Compound 44]", "Ragweed plant response rating", 0],
  ["CC1=[N+]([O-])C(C(=O)Nc2cccc(F)c2F)C(c2ccc(C)c(C(F)(F)F)c2)C1 (racemic) [Compound 62]", "Ragweed plant response rating", 50],
  ["CC1=[N+]([O-])C(C(=O)Nc2cccnc2F)C(c2ccc(C(F)(F)F)cc2)C1 (racemic) [Compound 41]", "Ragweed plant response rating", 40],
  ["CC1=[N+]([O-])[C@@H](C(=O)Nc2cccc(F)c2F)[C@H](c2cccc(Oc3ccc(F)cn3)c2)C1 [Compound 84]", "Ragweed plant response rating", 30]
]}

###

system: wheat (Triticum aestivum); experiment: Test A postemergence, visual injury rating 0-100; type: in vivo; settings: 125 g ai/ha, 0 to 100 scale
EXPERIMENTAL_ENDPOINT: Wheat plant response rating

{"columns": ["COMPOUND", "SYSTEM_TESTED", "TEST_RESULT"],
 "data": [
  ["CSc1ccccc1NC(=O)C1C(c2ccc(C(F)(F)F)cc2)CC(C)=[N+]1[O-] (racemic) [Compound 29]", "wheat (Triticum aestivum)", 0],
  ["CC1=[N+]([O-])C(C(=O)Nc2ccccc2S(C)(=O)=O)C(c2ccc(C(F)(F)F)cc2)C1 (racemic) [Compound 43]", "wheat (Triticum aestivum)", 0],
  ["CC1=[N+]([O-])[C@@H](C(=O)Nc2cccc(F)c2F)[C@H](c2cccc(C(F)(F)F)c2)C1 [Compound 45]", "wheat (Triticum aestivum)", 60]
]}

###

tested on: barnyardgrass (Echinochloa crus-galli); experiment: Test A postemergence, visual injury rating 0-100; type: in vivo; details: 31 g ai/ha, 0 to 100 scale
Excerpt: […]

{"columns": ["MOLECULE", "SYSTEM_TESTED", "Barnyardgrass plant response rating"],
 "data": [
  ["CC1=[N+]([O-])[C@H](C(=O)Nc2cccc(F)c2F)[C@@H](c2ccc(C)cc2)C1", "barnyardgrass (Echinochloa crus-galli)", 50],
  ["CC1=[N+]([O-])[C@@H](C(=O)Nc2cccc(F)c2F)[C@H](c2cccc(Oc3ncc(F)cc3F)c2)C1", "barnyardgrass (Echinochloa crus-galli)", 20],
  ["CC1=[N+]([O-])[C@H](C(=O)Nc2cccc(F)c2F)[C@@H](c2ccc(Cl)cc2)C1", "barnyardgrass (Echinochloa crus-galli)", 80],
  ["CC1=[N+]([O-])[C@H](C(=O)Nc2cccc(F)c2F)[C@@H](c2ccc(F)c(OC(F)(F)C(F)F)c2)C1", "barnyardgrass (Echinochloa crus-galli)", 30],
  ["CC1=[N+]([O-])C(C(=O)Nc2cccc(F)c2F)C(c2ccc(F)c(Oc3ccc(F)cn3)c2)C1 (racemic)", "barnyardgrass (Echinochloa crus-galli)", 0],
  ["CC1=[N+]([O-])[C@@H](C(=O)Nc2cccc(F)c2F)[C@H](c2cccc(OC(C)(C)C)c2)C1", "barnyardgrass (Echinochloa crus-galli)", 30],
  ["CC1=[N+]([O-])[C@H](C(=O)Nc2cccc(F)c2F)[C@@H](c2ccc(C(F)(F)F)cc2)C1", "barnyardgrass (Echinochloa crus-galli)", 30]
]}
